B1: tRNA (parent)
chain: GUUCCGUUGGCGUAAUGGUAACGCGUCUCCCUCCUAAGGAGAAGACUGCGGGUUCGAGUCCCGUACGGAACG

Variants of: B1
ASSAY_TEXT: yeast fitness, log relative to wild type (ln ratio); higher = fitter; tRNA-Arg(CCU), competitive growth, 37 C, 1 M NaCl
Assign rule met whenever yeast fitness (ln) does not fall below -0.2; assign rule not met whenever it does.

Form field: yeast fitness (ln) at least -0.2? Entry: G1A U2G G6U A43C C66U A69G A70U C71U
rule not met

Now consider G6A A43C C46U C66A A70U C71U .
rule not met

What about U2G G6U C27U A69G A70G C71U ?
rule not met

Now try G1A U2G G6A C27U A70U .
rule not met

Now consider G1A G6A A43C C46U C66U C71U .
rule met

Now consider U2G G6U C27U C66U A69G .
rule not met

U2G C27U A43C A70G , same question.
rule met

And what about the variant U2G A43C C46U C66U A70U C71U ?
rule not met

Another: U2G G6U C27U A43C C46U A69G A70U C71U
rule not met

// query: G1A U2G G6A C46U A70G C71U
rule not met

Repeat with G1A G6A C27U C66U A70U C71U
rule not met

Do the same for U2G G6A C27U C46U C66U A69G A70G C71U please
rule not met

Next variant up: G6U A43C C66U A69G A70U
rule not met

Also G1A U2G G6U C27U A43C C66U A69G A70G , if possible.
rule not met

And for C27U A43C C46U A69G A70U ?
rule met

Queued: G1A U2C G6U A43C A69G A70U C71U
rule not met

And G1A U2G C27U C66A A70G C71U ?
rule not met

And what about the variant G1A U2C G6U A43C C66A A70G ?
rule met

Now consider C27U C46U A69G A70U .
rule not met

And for G1A U2C G6A C46U C66U A70G ?
rule met

Param item: G1A U2G G6U C27U C46U C66A A70U
rule not met

Field entry: U2C G6A C27U A70U C71U
rule met

And then G1A U2G C27U A43C C46U A70G , what is it?
rule met

What about this variant? G1A G6A A43C A70G C71U
rule not met

Now this one: U2G C27U A43C C46U C66A A70G
rule met

Field entry: G6A C27U C46U
rule met

Field entry: G6A C27U A43C C46U C66A A70G C71U
rule not met

Now this one: G6U A43C C46U A69G
rule met

# repeat for G1A U2G C27U C66A A70G
rule not met

Another variant: G6U A43C C46U A70G
rule met

What would you report for U2C C27U A43C C46U C66U C71U ?
rule met

What do you have for G6A C46U C66A A70U ?
rule met

What about this variant? G1A U2G C27U A43C C46U C66A A70U C71U
rule not met

Then G1A U2G G6U A43C A70G ?
rule not met

And then G1A U2G G6U C27U A43C A69G A70U , what is it?
rule not met

Another variant to look at: G6U A43C C66A
rule met

Next entry: G1A U2C C27U A43C C46U C66U
rule met

For U2G A43C A70G C71U then?
rule met

What about G1A U2G G6A C27U A43C A69G A70U ?
rule not met

Quick one: C27U C66A A69G A70U C71U
rule not met

Same again, this time with U2G G6A C27U C46U C66A A70U C71U
rule met

Then what about the variant C27U A43C A70G C71U ?
rule met

What do you get for U2C G6A C66U ?
rule met

Also check G1A U2C G6U C27U A43C C46U C66A A70U
rule met

Proceed to U2G G6U C66U A69G A70U
rule not met
